Molecular target: Olfactory receptor 51E2 (Homo sapiens)
Sequence (Q9H255 whole entry): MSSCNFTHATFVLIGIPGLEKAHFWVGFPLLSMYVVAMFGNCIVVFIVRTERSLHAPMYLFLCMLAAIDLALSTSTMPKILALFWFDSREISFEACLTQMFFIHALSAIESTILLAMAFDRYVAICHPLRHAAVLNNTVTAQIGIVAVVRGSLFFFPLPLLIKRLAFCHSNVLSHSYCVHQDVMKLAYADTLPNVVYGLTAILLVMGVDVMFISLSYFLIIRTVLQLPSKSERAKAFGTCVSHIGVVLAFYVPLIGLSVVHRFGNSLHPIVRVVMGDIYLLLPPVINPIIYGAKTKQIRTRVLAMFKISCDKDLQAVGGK
Test: Agonist activity at PSGR/OR51E2 (unknown origin) expressed in human Hana3A cells co-transfected with CRE-Luc by luciferase reporter gene assay
Type: functional, cell-based
pEC50: −log10 of the molar value.

[
  {
    "substance": "H-RPPGFSPFR-OH [BRADYKININ]",
    "pEC50": 8.89
  }
]
